tested on: Escherichia coli; experiment: Inhibition of Escherichia coli RNAP assessed as incorporation of [5,6-3H]UTP at 200 uM preincubated for 10 mins followed by DNA template and ATP, CTP, GTP, UTP, [5,6-3H]UTP addition measured after 10 mins by scintillation counting analysis
Calls of active or inactive are those of the source. The calls are words filed in the database; no cut-off is given here.
measurementKind: inhibition

Some solved entries appear below for comparison.
CCN(CC)S(=O)(=O)c1ccc(C(=O)Nc2ccccc2C(=O)O)cc1    inactive
CCCN(CCC)S(=O)(=O)c1cccc(C(=O)Nc2ccccc2C(=O)O)c1    inactive
CCN(CC)S(=O)(=O)c1cccc(C(=O)Nc2cc(F)ccc2C(=O)O)c1    inactive
CCN(CC)S(=O)(=O)c1ccc(C(=O)Nc2ccc(Br)cc2C(=O)O)cc1    28%
CCN(CC)S(=O)(=O)c1cccc(C(=O)Nc2ccc(-c3cccc(C(=O)O)c3)cc2C(=O)O)c1    24%

Note: attention shifts to another entry.
Prompt line: Entry O=C(Nc1ccccc1C(=O)O)c1cccc(S(=O)(=O)N2CCCC2)c1 has what inhibition?
Response line: inactive
